cell viability: recorded values
- Tested on: MARIMO;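 further: after 48 h exposure read by CellTiter-Glo luminescence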
- assay remarks: cell viability relative to vehicle control; higher = less cytotoxic
- measurement context: 10 µM; SRSF2 genotype: SRSF2 wt/wt
Counter-ions that a name gives are not always drawn.
Enter your answer as a number in %; do not include the unit.

compound=Cc1c(C(=O)Nc2ccc(N3CCC(N4CCOCC4)CC3)c(C#N)c2)cnn1-c1ccc(Cl)cc1 result_unit=% observed_measurement=12.2

IN: Respond only with cell viability recorded for "C=CC(=O)N1CCC[C@@H](n2nc(-c3ccc(Oc4ccccc4)cc3)c(C(N)=O)c2N)C1"
OUT: 90.2

IN: Given the compound "CC[C@@H](N)CNc1ccnc(-c2cc(-c3cnn(C)c3)ccc2O)n1" , write its reported cell viability.
OUT: 1.1

IN: Please give measured cell viability of the following entry: "CNC(=O)c1cc(COc2nnc(Nc3ccc(Cl)cc3)c3ccoc23)ccn1"
OUT: 106

IN: Provide one value: measured cell viability of "C[C@@H]1O[C@@H](OC[C@H]2O[C@@H](Oc3c(-c4ccc(OCCO)c(OCCO)c4)oc4cc(OCCO)cc(O)c4c3=O)[C@H](O)[C@@H](O)[C@@H]2O)[C@H](O)[C@H](O)[C@H]1O"
OUT: 92.2

IN: Find the measured cell viability of OC[C@H]1O[C@H](OCC2O[C@@H](O)[C@H](O)[C@@H](O)[C@@H]2O)[C@H](O)[C@@H](O)[C@H]1O (some centres not stated) and report it.
OUT: 110

IN: Specify cell viability for CNC(=O)c1cc(Oc2ccc(NC(=O)Nc3ccc(Cl)c(C(F)(F)F)c3)cc2)ccn1 [Sorafenib Tosylate] and stop.
OUT: 29.3

All figures here come from the supplement of paper PMC10981050.
